assay: Plasma and urine pharmacokinetics (HPLC-UV) in patients after 60-min IV infusion; format: in vivo, human; settings: human, plasma, intravenous, 2 mg, patient no. 4; 2 mg m-2; day 1 course 1; observed value
measured parameter: Cmax (ng/mL)
Write the number in ng/mL without appending the unit.

**Q:** Name the reported Cmax value associated with the compound `C[C@@](O)(/C=C/[C@H]1CC=CC(=O)O1)[C@@H](C[C@@H](O)\C=C/C=C\C=C\CO)OP(=O)(O)O`
**A:** 371

* * *

experiment: Plasma and urine pharmacokinetics (HPLC-UV) in patients after 60-min IV infusion; format: in vivo, human; conditions: human, plasma, intravenous, 4 mg, patient no. 7; 4 mg m-2; day 1 course 1; two-compartment model; read-out: t1/2 (terminal) (converted)
measured parameter: half-life (h)
Write the number in h without appending the unit.

**Q:** Name the reported half-life value associated with the compound `C[C@@](O)(/C=C/[C@H]1CC=CC(=O)O1)[C@@H](C[C@@H](O)\C=C/C=C\C=C\CO)OP(=O)(O)O`
**A:** 2.03
